Data credit: PubChem BioAssay (NCI)

tested on: KM12 colon; test: NCI-60 one-dose screen, 48 h (100 = growth as untreated, 0 = no growth, -100 = all killed); details: 10 µM unless noted
This is part of a sample that, as a whole, favours compounds with a hit. Of some 83,000 tested, about 20% had one in any assay.
Class TRUE: growth at least -60%. Class FALSE: growth below -60%.

| CHEMICAL STRING | TARGET OR TEST SYSTEM | LABEL |
| --- | --- | --- |
| O=C1/C(=C/c2ccc(F)cc2)CN(C(=O)C(Cl)Cl)C/C1=C\c1ccc(F)cc1 | KM12 colon | FALSE |
| NS(=O)(=O)c1ccc(NC(=O)/C(=C\c2ccc(Cl)cc2Cl)NC(=O)c2ccccc2)cc1 | KM12 colon | TRUE |
| COc1cc(OC)c(/C=C/C(=O)c2c(O)cc(OC)c(C3CCN(C)CC3)c2OC)c(OC)c1 | KM12 colon | FALSE |

Problem: Check if growth >= -60% (inclusive). Item: CCOC(=O)C#Cc1c(C(=O)OCC)nnn1Cc1ccc(C(F)(F)F)cc1
Solution: TRUE

Problem: Check if growth >= -60% (inclusive). Item: C=C(C)[C@@H]1CC[C@]2(COC(C)=O)CC[C@]3(C)[C@H](CC[C@@H]4[C@@]5(C)CCCN(C(C)=O)C(C)(C)[C@@H]5CC[C@]43C)[C@@H]12
Solution: TRUE

Problem: Check if growth >= -60% (inclusive). Item: CCN1CCN(C(=O)[C@]23CC[C@@H](C)[C@H](C)[C@@H]2C2=CC[C@@H]4[C@@]5(C)C/C(=C/c6cccnc6)C(=O)C(C)(C)[C@@H]5CC[C@@]4(C)[C@]2(C)CC3)CC1
Solution: TRUE

---

Each entry below carries its recorded growth.
system: A549/ATCC NSCLC; test: NCI-60 one-dose screen, 48 h (100 = growth as untreated, 0 = no growth, -100 = all killed); conditions: 10 µM unless noted
The panel holds about 83,000 compounds, 20% with a hit somewhere; the sample as a whole holds those more often.
Dear colleague, please return just the value in %, with no unit written.

| MOLECULE | TARGET OR TEST SYSTEM | READOUT TYPE | UNIT OF MEASUREMENT | RESULT NUMBER |
| --- | --- | --- | --- | --- |
| COCCn1cc(-c2csc(-c3c[nH]c4ccc(Br)cc34)n2)c2cccnc21 | A549/ATCC NSCLC | growth | % | 23.1 |
| O=S(=O)(Nc1cc(Sc2cccc3cccnc23)c(O)c2ccccc12)c1ccccc1 | A549/ATCC NSCLC | growth | % | 15.7 |
| O=C(CSc1nnc(-c2cc(-c3ccccc3)nc3ccccc23)n1-c1ccccc1)Nc1ccc(C(=O)/C=C/c2ccc(Cl)cc2)cc1 | A549/ATCC NSCLC | growth | % | 84.4 |
| CC(C)(C)n1cc(-c2ccnc(NCCCNS(=O)(=O)c3ccc(C(F)(F)F)cc3)c2)c(-c2cccc(F)c2)n1 | A549/ATCC NSCLC | growth | % | 64.1 |
| CCOC(=O)C1=C(C)/C(=C\c2[nH]c(C)c(C(=O)OCC)c2C)N=C1C | A549/ATCC NSCLC | growth | % | 86.7 |
| CCCCC#Cc1c(I)n(C)c(=O)[nH]c1=O | A549/ATCC NSCLC | growth | % | 70.9 |

Problem: // growth lookup, key: COC(=O)N1CC(Oc2ccccn2)C2CC1c1ccccc1O2 (stereo unspecified)
Solution: 98.6

Problem: // growth lookup, key: CCNc1nc(O)c(/C=C2\C=Nc3ncccc32)s1
Solution: 11.1

Problem: // growth lookup, key: COc1cccc(C(=O)NNc2nc(Cl)nc(Cl)n2)c1
Solution: 105

Problem: // growth lookup, key: FC(F)(F)c1ccc(Cn2cc(CSc3nc4ccccc4s3)nn2)cc1
Solution: 90.1

Problem: // growth lookup, key: O=C1C(Nc2ccccn2)=C(I)C(=O)c2ncccc21
Solution: -48.8

Problem: // growth lookup, key: CC1=C(C(=O)Nc2ccccc2)C(c2ccc3c(c2)OCO3)NC(=S)N1 (stereo unspecified)
Solution: 108

Problem: // growth lookup, key: COc1ccc(C2=CC(c3cc(OC)c(OC)c(OC)c3)n3ncnc3N2)cc1 (stereo unspecified)
Solution: 14.3

Problem: // growth lookup, key: c1ccc(CCNc2c3ccccc3nc3ccccc23)cc1
Solution: 32.7

Problem: // growth lookup, key: O=C(NNC(=O)c1nc2cc(F)ccc2n2cccc12)c1cnccn1
Solution: 28.5

Problem: // growth lookup, key: COC(=O)c1nc(-c2ccccc2)oc1S(=O)(=O)NCC(c1ccc(Cl)cc1)N1CCOCC1 (stereo unspecified)
Solution: 90.5

Problem: // growth lookup, key: CC(=O)O[C@H]1C[C@@H]2C(C)(C)C(=O)CC[C@@]2(C)c2ccc(C(C)C)cc21
Solution: 107

Problem: // growth lookup, key: CC(C)(C)c1cc(Cl)c(O)c(CNCCO)c1
Solution: 109

Problem: // growth lookup, key: CN1C(=O)/C(=C2\SC(=Nc3ccccc3)N(Nc3ccccc3)C2=O)c2ccccc21
Solution: 98.6

Problem: // growth lookup, key: COc1ccc2cc(-c3ccnc4c(N=Nc5ccc(Cl)cc5)c(N)nn34)ccc2c1
Solution: 81.9
